Reported inhibition at 10 µM is given for each of the following molecules.
target: PRMT3 (Homo sapiens, UniProt O60678); assay: SAHH-coupled fluorescence assay, inhibition of PRMT3; format: biochemical; design: PRMT3 (residues 211-531) was cloned into the pET28a-MHL expression vector; tag of the pET28a-MHL vector (not described); made in house; host or cells: Escherichia coli BL21(DE3)
Sequence (O60678 211-531): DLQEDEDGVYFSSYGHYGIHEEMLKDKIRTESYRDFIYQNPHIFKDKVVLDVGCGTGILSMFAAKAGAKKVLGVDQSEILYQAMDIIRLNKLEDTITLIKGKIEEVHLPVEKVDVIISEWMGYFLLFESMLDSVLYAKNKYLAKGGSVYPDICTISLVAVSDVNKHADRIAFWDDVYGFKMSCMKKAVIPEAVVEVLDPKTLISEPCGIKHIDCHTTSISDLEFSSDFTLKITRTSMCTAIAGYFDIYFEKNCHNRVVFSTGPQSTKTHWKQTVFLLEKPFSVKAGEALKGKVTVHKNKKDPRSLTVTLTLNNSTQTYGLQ

Look over these answered cases.
[[record]]
molecule = "COc1cc2nc(-c3cccc(F)c3)nc(NCCSC[C@H]3O[C@@H](n4cnc5c(N)ncnc54)[C@H](O)[C@@H]3O)c2cc1OC [Compound 12c]"
target_or_system = "PRMT3 (Homo sapiens, UniProt O60678)"
reported_metric = "inhibition at 10 µM"
result = "15%"

[[record]]
molecule = "N=C(NCCCSC[C@H]1O[C@@H](n2cnc3c(NCCCc4ccccc4)ncnc32)[C@H](O)[C@@H]1O)NC1CCC1 [Compound 19c]"
target_or_system = "PRMT3 (Homo sapiens, UniProt O60678)"
reported_metric = "inhibition at 10 µM"
result = "8%"


// field: inhibition at 10 µM; key: "N=C(NCCSC[C@H]1O[C@@H](n2cnc3c(N)ncnc32)[C@H](O)[C@@H]1O)Nc1cccc(-c2ccc(Cl)cc2)c1" ; value = 62%

// field: inhibition at 10 µM; key: Nc1ncnc2c1ncn2[C@@H]1O[C@H](CSCCCNCc2cccc(-c3ccc(Cl)cc3)c2)[C@@H](O)[C@H]1O [Compound 10m] ; value = 22%

// field: inhibition at 10 µM; key: Nc1ncnc2c1ncn2[C@@H]1O[C@H](CSCCOc2ccc(-c3ccccc3O)cc2)[C@@H](O)[C@H]1O [Compound 14g] ; value = 5%

// field: inhibition at 10 µM; key: COc1cc2nc(-c3cccc(O)c3)nc(NCCSC[C@H]3O[C@@H](n4cnc5c(N)ncnc54)[C@H](O)[C@@H]3O)c2cc1OC [Compound 12g] ; value = 4%

// field: inhibition at 10 µM; key: Nc1ncnc2c1ncn2[C@@H]1O[C@H](CSCCNCc2cccc(-c3ccc(F)c(O)c3)c2)[C@@H](O)[C@H]1O [Compound 10f] ; value = 20%

// field: inhibition at 10 µM; key: "N=C(NCCCSC[C@H]1O[C@@H](n2cnc3c(NCCCc4ccccc4)ncnc32)[C@H](O)[C@@H]1O)NCC1CCC1" ; value = 7%

// field: inhibition at 10 µM; key: "Nc1cccc(-c2ccc(CNC(=O)NCCSC[C@H]3O[C@@H](n4cnc5c(N)ncnc54)[C@H](O)[C@@H]3O)cc2)c1" ; value = 5%

// field: inhibition at 10 µM; key: "N=C(NCCCO)NCCCSC[C@H]1O[C@@H](n2cnc3c(NCCCc4ccccc4)ncnc32)[C@H](O)[C@@H]1O" ; value = 10%

// field: inhibition at 10 µM; key: Nc1ncnc2c1ncn2[C@@H]1O[C@H](CSCCCNCc2cccc(-c3cncnc3)c2)[C@@H](O)[C@H]1O [Compound 10s] ; value = 24%

// field: inhibition at 10 µM; key: Nc1cccc(-c2cccc(CNCCSC[C@H]3O[C@@H](n4cnc5c(N)ncnc54)[C@H](O)[C@@H]3O)c2)c1 [Compound 10l] ; value = 8%
